The values you see were collected from patent US12146004B2.

# Test system: Escherichia coli
# Type: cell-based
Numbered stars: 1 amine (or outer) side, 2 acyl side, 3 side chain; on linkers, the order of the positions; unused ones are H or OH. Bridge positions count the residues as written; N and C are the ends. Square brackets hold non-standard residues; d marks the D form. Peptide text beside a SMILES is read from it. * marks the point of attachment. ξ: configuration not given here. X17 = CCCCCCN([C@@H](CCN)C(=O)[*:2])[*:1]; X26 = NCC[C@H](OCC1CCCCC1)C(=O)*; dCha = N[C@H](CC1CCCCC1)C(=O)O; Thr(3ξ) = CC(O)[C@H](N)C(=O)O; Dab = NCC[C@H](N)C(=O)O; Dap = NC[C@H](N)C(=O)O
Collected MIC E. coli 058 values appear next to each entry.
Record the value in µg/mL, omitting the unit from your answer.

In the examples that follow, each entry is paired with its recorded MIC E. coli 058.
INSERT INTO assay_data (compound, measurement_name, assay_value) VALUES
  ('CC(C)C[C@@H]1NC(=O)[C@@H](CC2CCCCC2)NC(=O)[C@H](CCN)NC(=O)[C@@H](NC(=O)[C@H](CN)NC(=O)[C@@H](NC(=O)CC(N)C2CCCCC2)C(C)O)CCNC(=O)[C@H]([C@@H](C)O)NC(=O)[C@H](CCN)NC(=O)[C@H](CCN)NC1=O (single isomer, unassigned; isomer 1) [Example 32]', 'MIC E. coli 058', 2),
  ('CC(C)C[C@@H]1NC(=O)[C@@H](CC2CCCCC2)NC(=O)[C@H](CCN)NC(=O)[C@@H](NC(=O)[C@H](CCN)NC(=O)[C@@H](NC(=O)C(CN)Cc2ccccc2)C(C)O)CCNC(=O)[C@H]([C@@H](C)O)NC(=O)[C@H](CCN)NC(=O)[C@H](CCN)NC1=O (single isomer, unassigned; isomer 2)', 'MIC E. coli 058', 4),
  ('CC(C)C[C@@H]1NC(=O)[C@@H](CC2CCCCC2)NC(=O)[C@H](CCN)NC(=O)[C@@H](NC(=O)[C@H](CN)NC(=O)[C@@H](NC(=O)C(CCN)Cc2ccccc2F)[C@@H](C)O)CCNC(=O)[C@H]([C@@H](C)O)NC(=O)[C@H](CCN)NC(=O)[C@H](CCN)NC1=O (single isomer, unassigned; isomer 2)', 'MIC E. coli 058', 4),
  ('CC(C)C[C@@H]1NC(=O)[C@@H](CC2CCCCC2)NC(=O)[C@H](CCN)NC(=O)[C@@H](NC(=O)[C@H](CN)NC(=O)[C@@H](NC(=O)[C@H](CCN)OCC2CCCCC2)[C@@H](C)O)CCNC(=O)[C@H]([C@@H](C)O)NC(=O)[C@H](CCN)NC(=O)[C@H](CCN)NC1=O [Example 84] (X26-T[Dap][Dab][Dab][dCha]L[Dab][Dab]T; lactam 3-C)', 'MIC E. coli 058', 8);

MIC E. coli 058 reported for this compound CC(C)C[C@@H]1NC(=O)[C@@H](CC2CCCCC2)NC(=O)[C@H](CCN)NC(=O)[C@@H](NC(=O)[C@H](CCN)NC(=O)[C@@H](NC(=O)C(CCN)c2cccc(Cl)c2)[C@@H](C)O)CCNC(=O)[C@H]([C@@H](C)O)NC(=O)[C@H](CCN)NC(=O)[C@H](CCN)NC1=O (single isomer, unassigned; isomer 2) : 2

Note to self: MIC E. coli 058 recorded for CCCCCCN[C@@H](CCN)C(=O)N[C@H](C(=O)N[C@@H](CN)C(=O)N[C@H]1CCNC(=O)[C@H]([C@@H](C)O)NC(=O)[C@H](CCN)NC(=O)[C@H](CCN)NC(=O)[C@H](CC(C)C)NC(=O)[C@@H](CC2CCCCC2)NC(=O)[C@H](CCN)NC1=O)C(C)O (stereo partly drawn) [Example 49] (H-[X17][Thr(3ξ)][Dap][Dab][Dab][dCha]L[Dab][Dab]T; lactam 4-C) was 2
